B1: TIA1 (parent)
chain: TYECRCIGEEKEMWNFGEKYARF

Variants of: B1
Experiment: protein stability index of a GFP-peptide fusion (GPS, HEK-293T) (PSI 1-6); higher = more stable;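 also: lentivirally expressed fusions sorted by FACS into six bins by GFP to DsRed ratio, PSI derived from sequencing read proportions per bin multiplied by bin number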
Conditions: c terminus: native
Label class 1 for high-side protein stability index (at or above 2) and class 0 for low-side protein stability index (below it).

G8K: class 1
C6D: class 1
F23L: class 0
E12P: class 1
T1R: class 0
C4V: class 0
R22Y: class 0
C6W: class 0
F23D: class 1
C4Y: class 0
Y20Q: class 1
